Assign growth inhibition to each entry below.
Test Protocol: NCI Yeast Anticancer Drug Screen. Data for the sgs1 mgt1 strain (AID 161);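 also: 0% = growth of cultures given vehicle only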
Run Parameters: S. cerevisiae sgs1 mgt1 strain, at 50.0 µM, hits give high values
This is part of a sample that, as a whole, favours compounds with a hit. Of some 79,000 tested, about 15% had one in any assay. *1 amine or outer side, *2 acyl side, *3 side chain or, on linkers, in order; H or OH if unused. Where a SMILES comes first, the peptide text is derived from it. [ ]: non-standard residue; d: D form. X12 = NC(N)=NCC(O)CC(N[*:1])C(=O)[*:2]; Orn = NCCC[CH](N)C(=O)O
The response must be a number in % with no trailing unit.

Name the reported growth inhibition value associated with the compound `O=[N+]([O-])c1ccc(N/N=C(\Cc2ccccc2)c2ccccc2)c([N+](=O)[O-])c1` 6.2

Please answer likewise for CC(O)C(NC(=O)C(CCCN)NC(=O)C(CC(O)CN=C(N)N)NC(=O)C(N)CCCN=C(N)N)C(=O)NC(CCCN)C(=O)NC(CC(O)CN=C(N)N)C(=O)NC(Cc1ccc(O)cc1)C(=O)O (centres undefined) (H-R[X12][Orn]T[Orn][X12]Y-OH; configuration not given here) -4.1

Please answer likewise for COC(=O)C1CCC2C3CCCCC3CCC2C1(C)C(=O)OC (centres undefined) -4.55

Please answer likewise for CC1CCC2C(C)(C)CC3(C)CCC1C23O (centres undefined) 81

Please answer likewise for `CCN1C(=O)CCN(S(=O)(=O)c2ccc(-n3nc(C)cc3C)cc2)C1=S` -9.15

Please answer likewise for O=C(O)C(c1ccc(-c2ccccc2)cc1)C1CCCCC1 (centres undefined) 50.2

Please answer likewise for `O=C(OCCCl)Oc1c(Cl)cc([N+](=O)[O-])cc1[N+](=O)[O-]` 99.7

Please answer likewise for `CCC(=O)N(C)[C@@H]1Oc2ccc(O)cc2[C@]1(C)c1cc(O)ccc1O` 14.8

Please answer likewise for O=C(O)CC1CC(=O)c2cccn21 (centres undefined) -8.15

----------
Assign growth inhibition to each entry below.
Test Protocol: NCI Yeast Anticancer Drug Screen. Data for the mec2-1 strain (AID 157)
Run Parameters: S. cerevisiae mec2-1 strain, at 50.0 µM, hits give high values
This is part of a sample that, as a whole, favours compounds with a hit. Of some 79,000 tested, about 15% had one in any assay.
The response must be a number in % with no trailing unit.

Name the reported growth inhibition value associated with the compound `O=S(=O)(O)c1cc2cc(S(=O)(=O)O)c(O)cc2cc1O` -7.55

Please answer likewise for `COc1c(C)cc2c(C(C)C)c(O)c(O)c(C=O)c2c1O` 88.2

Please answer likewise for `O=c1cnc2c(ccc3ccccc32)[nH]1` -20.8

Please answer likewise for `Nc1ccc2nc3c4ccccc4c(O)n3nc2c1` -9.15

Please answer likewise for `Nc1ncnc2c1ncn2CCCCCO` 49.7

Please answer likewise for CCOC(=O)C(NC(=O)Nc1ccccc1F)(OC)C(F)(F)F (stereo not drawn) -38.3

Please answer likewise for `O=[N+]([O-])c1cccc(C=NC23CC4CC(CC(C4)C2)C3)c1` 7.45

Please answer likewise for OC1(c2ccccc2)CCCN(Cc2ccccc2)C1 (stereo not drawn) 7

Please answer likewise for `N#CCCN(CCC#N)c1ccc(C=O)cc1` 8.05

Please answer likewise for `Cc1nn(-c2ccccc2)c(=O)n2c1nc1ccccc12` -9.5

Please answer likewise for O=C(O)CCC12CCC(=O)C=C1NC(=O)CC2 (stereo not drawn) -4.4

Please answer likewise for `O=S(=O)(O)c1cc(Cl)c(O)c(Cl)c1` -21.8

Please answer likewise for `Cc1nc(-n2nc(-c3ccccc3)cc2-c2ccccc2)sc1C(=O)CC(=O)C(=O)Nc1ccc(Cl)c(Cl)c1` -5.55

Please answer likewise for `Cc1cc(Cl)cc(CN(C)Cn2c(=O)cc[nH]c2=O)c1O` -7.65

Please answer likewise for `O=c1c[n+](-c2ccccc2)[nH]o1` -12.1

Please answer likewise for CCC(C)(O)C(=O)O (stereo not drawn) -9.4

Please answer likewise for `CC(C)c1ccc2c(c1)CC[C@H]1[C@](C)(COCCC#N)CCC[C@]21C` -28.2

Please answer likewise for `N#Cc1ccc(Sc2ccccc2)cc1C#N` -8.7

Please answer likewise for `Cc1c(C)c(CO)c(C)c(C)c1CO` -19.4

Please answer likewise for `CCN(Cc1ccc(C(=O)OC)cc1)c1cccc(NC(C)=O)c1` 6.7

Please answer likewise for `C[Si](C)(C)O/C=C1\CCCCC1=O` 8.4

Please answer likewise for O/N=C1/C2C=CC(C2)C1Cl (stereo not drawn) -5.75

Please answer likewise for `CN(C)c1ccc([Si](c2ccc(N(C)C)cc2)c2ccc(N(C)C)cc2)cc1` 3.65

----------
Test Protocol: NCI Yeast Anticancer Drug Screen. Data for the bub3 strain (AID 167)
Run Parameters: S. cerevisiae bub3 mutant strain, at 50.0 µM, hits give high values
The panel holds about 79,000 compounds, 15% with a hit somewhere; the sample as a whole holds those more often.
Measurement Type: growth inhibition (%)
The response must be a number in % with no trailing unit.

Name the reported growth inhibition value associated with the molecule `Cc1ccc2ccccc2c1CC(=O)O` 38.8

Please answer likewise for COc1ccc(CCCC2C(=O)CC(C)OC2=O)cc1OC (centres undefined) 3.05

Please answer likewise for CC(C)(C)OC(=O)C(N)Cc1ccccc1 (centres undefined) 3.35

Please answer likewise for `O=C(Nc1ccc(S(=O)(=O)N2CCCCC2)cc1)OC(c1ccccc1)c1ccccc1` -11.7

Please answer likewise for `OCCN(CCO)c1ccc(O)cc1` -3.6

Please answer likewise for `CCc1nc2c([nH]1)c(=O)n(C)c(=O)n2C` -20.6

Please answer likewise for `Cc1ccc(-c2cc(=O)c3cc(C)c(C)c(C(=O)O)c3o2)cc1C` 6.25

Please answer likewise for `N/N=C1/C=Cc2cccc3cccc1c23` 16.2

Please answer likewise for N#CC(C(N)=O)C(CC(=O)c1ccccc1)c1ccccc1 (centres undefined) 19.2

Please answer likewise for O=C(OCC1OC(OCc2ccccc2)C(OC(=O)c2ccccc2)C1OC(=O)c1ccccc1)c1ccccc1 (centres undefined) -13.5

Please answer likewise for `CCc1c(C)nc2[nH]ncn2c1=O` 7.25

Please answer likewise for `CC(C)(CCCCC(C)(C)C1NC(=O)N1)C1NC(=O)N1` -9.1

Please answer likewise for `C[N+](C)(C)/C=C/c1ccccc1` 0.2

Please answer likewise for C#CC(OC(=O)c1cc([N+](=O)[O-])cc([N+](=O)[O-])c1)C1OC(C)(C)OC1C1COC(C)(C)O1 (centres undefined) 7.25

Please answer likewise for COc1ccc(C2c3cc4c(cc3OC(C)(OC)C2C)OCO4)c(OC)c1OC (centres undefined) -3.6

Please answer likewise for `COc1cccc(Cc2c3cc(OC)ccc3cc[n+]2C)c1` 59

Please answer likewise for `c1ccc(Nc2nnc(-c3nsc4ccccc34)o2)cc1` -31.9

Please answer likewise for `O=C(NCCCN1CCN(CCCNC(=O)Nc2ccc(Br)cc2)CC1)Nc1ccc(Br)cc1` -1.5

Please answer likewise for `COc1cc(NCc2c(O)ccc3ccccc23)c2ncccc2c1` 7.75

Please answer likewise for `Oc1c(Cl)cc(N=Cc2ccc(N(CCCCl)CCCCl)cc2Cl)cc1Cl` 54.7

Please answer likewise for `CC(=O)CC(=O)NCCCN1CCCCCC1` -11.2

Please answer likewise for `O=S(=O)(/N=C(Cl)/C(Cl)=N/S(=O)(=O)c1ccccc1)c1ccccc1` -0.1

Please answer likewise for `COC1=CC(=O)C(C)=CC1=O` 16.3

Please answer likewise for `Cc1ccc(O)c(C(C)(C)C)c1` -0.65

Please answer likewise for `CCOC(=O)C(=O)Cc1cnccn1` -17.8

Please answer likewise for `Cc1cc(NS(=O)(=O)c2ccc(NC(NC(=O)C(C(F)(F)F)C(F)(F)F)(C(F)(F)F)C(F)(F)F)cc2)no1` 10.6

Please answer likewise for `C=C1C(=O)N2CCc3c([nH]c4ccccc34)[C@H]2C[C@@H]1CO` 7.05

Please answer likewise for COc1cc([N+](=O)[O-])ccc1C(=O)NC(CCC(=O)O)C(=O)O (centres undefined) 28.6

Please answer likewise for `CC(C)(CO)NC(=O)c1cccs1` -4.35

Please answer likewise for `CN(C)C(=O)OC1CCCCC1` -19.6

Please answer likewise for `COC(=O)c1nc2n[nH]c(N)c2c2c1CCCCCCCCCC2` 1.4

Please answer likewise for CC1Cc2c([nH]c(=O)n(C)c2=O)O1 (centres undefined) -21.1

Please answer likewise for O=[N+]([O-])c1nccn1CC(O)CN1CCCCC1 (centres undefined) -7.85

Please answer likewise for `CS(=O)(=O)OC[C@@H](O)[C@@H](O)COS(C)(=O)=O` 3.55

Please answer likewise for `COC(=O)c1ccc(C(=O)O)cc1` 0.65

Please answer likewise for `C(=N\c1nc2ccccc2s1)/c1cccs1` 3.45

Please answer likewise for `NC(=O)NNCc1ccccc1` -5.6

Please answer likewise for `Brc1c(CCc2ccc3ccccc3c2Br)ccc2ccccc12` -2.8

Please answer likewise for `C=C(C)CCCCCCCCC` 3
